Below, each entry is listed with its recorded Kd.
target: T1, cynomolgous monkey CD25 (cynomolgous monkey); assay: SPR (BIAcore), cynomolgous CD25
T1 construct: also called cmCD25; cm
Respond with the bare value in nM.

# binder, Kd [nM]
records = [
    ("Variant C62 (antibody, V domains shown) VH: QVQLVQSGAEVKKPGSSVKVSCKASGYTFTSYRMHWVRQAPGQGLEWMGYIKPNKGRTEYNQKFKDKATITADESTNTAYMELSSLRSEDTAVYYCARGGGVFDYWGQGTLVTVSS VL: DIQMTQSPSTLSASVGDRVTITCSASSKISYMHWYQQKPGKAPKLLIYTTSDLASGVPARFSGSGSGTEFTLTISSLQPDDFATYYCHQRSTYPLTFGQGTKVEVK", 0.1),
    ("Variant C59 (antibody, V domains shown) VH: QVQLVQSGAEVKKPGSSVKVSCKASGYTFTSYRMHWVRQAPGQGLEWMGYIRPKSGRTEYNQKFKDKATITADESTNTAYMELSSLRSEDTAVYYCARGGGVFDYWGQGTLVTVSS VL: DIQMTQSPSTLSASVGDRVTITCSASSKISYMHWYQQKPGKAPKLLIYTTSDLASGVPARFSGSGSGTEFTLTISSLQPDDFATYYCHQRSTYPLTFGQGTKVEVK", 0.05),
]

Now for another entry.
Per the record, Variant C54 (antibody, V domains shown) VH: QVQLVQSGAEVKKPGSSVKVSCKASGYTFTSYRMHWVRQAPGQGLEWMGYISPRSGRTEYNQKFKDKATITADESTNTAYMELSSLRSEDTAVYYCARGGGVFDYWGQGTLVTVSS VL: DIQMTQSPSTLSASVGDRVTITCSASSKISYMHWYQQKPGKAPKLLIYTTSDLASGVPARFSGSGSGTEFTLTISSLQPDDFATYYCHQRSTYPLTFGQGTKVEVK has Kd of 0.055
